B1: library; numbered along this chain (parent)
chain: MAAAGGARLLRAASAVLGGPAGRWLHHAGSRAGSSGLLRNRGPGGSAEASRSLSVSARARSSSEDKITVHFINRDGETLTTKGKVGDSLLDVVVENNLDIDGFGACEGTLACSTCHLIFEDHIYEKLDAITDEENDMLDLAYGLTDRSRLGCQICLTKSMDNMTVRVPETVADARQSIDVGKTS

- Variants of: B1
- test-protocol: scaled log2 fold change in cell abundance, elesclomol vs control (0 = silent mean, 1 = nonsense mean) (scaled log2 ratio); higher = higher viability under elesclomol (loss of FDX1 cuproptosis function);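 note: variant abundance is its share of total variant reads in each endpoint sample, from next-generation sequencing of the integrated ORF PCR-amplified out of genomic DNA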
- particulars: with ABC1 FDX1 KO; elesclomol 5 nM; glucose 10 mM; 14 days
Entries annotated with measured scaled log2 fold change
Note: the reply should be a number with no unit written.

> print(dat)
   variant.string             readout.name  value.reported
1            A47G  scaled log2 fold change           0.844
2            W24N  scaled log2 fold change          -0.222
3           G102H  scaled log2 fold change          0.0379
4           E125C  scaled log2 fold change          -0.817

The record that follows has no scaled log2 fold change shown yet.
Quick one: scaled log2 fold change of H122Q ?
-0.0669

Origin of values: the supplement of paper PMC12855868
